System: biofilm-producing Staphylococcus epidermidis strains
ASSAY REMARKS: Inhibition of biofilm formation (MBIC, resazurin)
Format: cell-based
CONDITION DESCRIPTION: clinical strain 8 (Table S4)

>  <COMPOUND>
O=S(=O)(NC1CCN(CCC(Oc2ccc(C(F)(F)F)cc2)c2ccccc2)CC1)c1cccc(Cl)c1 (stereo not shown) [Compound 12]

>  <MBIC>
15.6 µg/mL

$$$$
>  <COMPOUND>
O=C(Nc1cccc(Cl)c1)NC1CCN(CCC(Oc2ccc(C(F)(F)F)cc2)c2cccs2)CC1 (stereo not shown) [Compound 25]

>  <MBIC>
3.9 µg/mL

$$$$
>  <COMPOUND>
CC(=O)NC[C@H]1CN(c2ccc(N3CCOCC3)c(F)c2)C(=O)O1 [linezolid, reference compound]

>  <MBIC>
12.5 µg/mL

$$$$
>  <COMPOUND>
O=S(=O)(NC1CCN(CCC(Oc2ccc(C(F)(F)F)cc2)c2cccs2)CC1)c1cccc(Cl)c1 (stereo not shown) [Compound 14]

>  <MBIC>
15.6 µg/mL

$$$$

###

Tested on: biofilm-producing Staphylococcus epidermidis strains
ASSAY REMARKS: Biofilm eradication (MBEC Assay Kit)
Type: cell-based
CONDITION DESCRIPTION: clinical strain 7 (Table S4)

>  <COMPOUND>
O=C(Nc1cccc(Cl)c1)NC1CCN(CCC(Oc2ccc(C(F)(F)F)cc2)c2cccs2)CC1 (stereo not shown)

>  <ASSAYED SYSTEM>
biofilm-producing Staphylococcus epidermidis strains

>  <UNIT TAG>
µg/mL

>  <MBEC>
31.25

$$$$
>  <COMPOUND>
O=S(=O)(NC1CCN(CCC(Oc2ccc(C(F)(F)F)cc2)c2ccccc2)CC1)c1cccc(Cl)c1 (stereo not shown)

>  <ASSAYED SYSTEM>
biofilm-producing Staphylococcus epidermidis strains

>  <UNIT TAG>
µg/mL

>  <MBEC>
125

$$$$
>  <COMPOUND>
CC(=O)NC[C@H]1CN(c2ccc(N3CCOCC3)c(F)c2)C(=O)O1 [linezolid, reference compound]

>  <ASSAYED SYSTEM>
biofilm-producing Staphylococcus epidermidis strains

>  <UNIT TAG>
µg/mL

>  <MBEC>
50

$$$$
>  <COMPOUND>
O=S(=O)(NC1CCN(CCC(Oc2ccc(C(F)(F)F)cc2)c2cccs2)CC1)c1cccc(Cl)c1 (stereo not shown)

>  <ASSAYED SYSTEM>
biofilm-producing Staphylococcus epidermidis strains

>  <UNIT TAG>
µg/mL

>  <MBEC>
125

$$$$

###

System: biofilm-producing Staphylococcus epidermidis strains
ASSAY REMARKS: Biofilm eradication (MBEC Assay Kit)
Type: cell-based
CONDITION DESCRIPTION: clinical strain 44 (Table S4)

>  <COMPOUND>
CC(=O)NC[C@H]1CN(c2ccc(N3CCOCC3)c(F)c2)C(=O)O1 [linezolid, reference compound]

>  <UNIT TAG>
µg/mL

>  <MBEC>
25

$$$$
>  <COMPOUND>
O=C(Nc1cccc(Cl)c1)NC1CCN(CCC(Oc2ccc(C(F)(F)F)cc2)c2cccs2)CC1 (stereo not shown) [Compound 25]

>  <UNIT TAG>
µg/mL

>  <MBEC>
15.6

$$$$
>  <COMPOUND>
O=S(=O)(NC1CCN(CCC(Oc2ccc(C(F)(F)F)cc2)c2ccccc2)CC1)c1cccc(Cl)c1 (stereo not shown) [Compound 12]

>  <UNIT TAG>
µg/mL

>  <MBEC>
31.25

$$$$
>  <COMPOUND>
O=S(=O)(NC1CCN(CCC(Oc2ccc(C(F)(F)F)cc2)c2cccs2)CC1)c1cccc(Cl)c1 (stereo not shown) [Compound 14]

>  <UNIT TAG>
µg/mL

>  <MBEC>
62.5

$$$$
